# Experimental protocol: Anti-inflammatory activity by oral administration
# Format: in vivo
# Experimental conditions: 10 μM/kg/os
Inhibition (after 3 h) values for the molecules below.
I'd appreciate it if you included the unit after the number.

Study these solved cases before continuing.
                                   molecule  result
0  COc1ccc2cc([C@H](C)C(=O)O)ccc2c1 [Naproxen, reference compound]     38%
1  COC(=O)C(O)C(OC(=O)C(C)c1ccc2c(Br)c(OC)ccc2c1)C(=O)OC (stereo not shown)      3%
2  COC(=O)C(O)C(OC(=O)C(C)c1ccc2cc(OC)ccc2c1)C(=O)OC (stereo not shown)      0%

As a next step, examine the molecule that follows.
The molecule identified as COc1ccc2cc([C@H](C)C(=O)O)ccc2c1Br [(c), reference compound] registered its Inhibition (after 3 h) at 6%

src = patent US4697036A
